Origin of measurements: paper PMC4957400

SYSTEM: HIV-1 RRE IIB RNA
EXPERIMENT SUMMARY: Dissociation constants by electrophoretic mobility shift assay
Format: binding
CONDITION CONTEXT: EMSA, average of at least three experiments
pKd: −log10 of the molar value.

# SUBSTANCE, pKd
measured = [
    ("(KACRKK)2*KLKBBAY [Peptide A6]", 7.22),
    ("(KKK)2*LKBBAKBBAY [Peptide A1]", 6.55),
    ("(KLK)2*KKKBBAY [Peptide A11]", 5.84),
    ("(KKL)2*LKKBBAY [Peptide A12]", 6.48),
    ("(KKK)2*KACRLKY [Peptide A3]", 6.85),
    ("(KKL)2*KKBBAKBBAY [Peptide A14]", 6.77),
    ("(KKACRK)2*KLKBBAY [Peptide A7]", 7.15),
    ("(KLK)2*LKKBBAY [Peptide A10]", 6.52),
    ("(KKK)2*LKBBALY [Peptide A2]", 6.89),
    ("(KKBBAK)2*LLKY [Peptide A8]", 6.18),
    ("(LLK)2*KKBBAKY [Peptide A13]", 6.68),
    ("(KKK)2*KLKACRY [Peptide A4]", 7.70),
    ("(KKKBBA)2*KLKBBAY [Peptide A9]", 6.92),
]
